# measurement_target: EPHB2 (UniProt P29323)
# Sequence (P29323 whole entry, looked up): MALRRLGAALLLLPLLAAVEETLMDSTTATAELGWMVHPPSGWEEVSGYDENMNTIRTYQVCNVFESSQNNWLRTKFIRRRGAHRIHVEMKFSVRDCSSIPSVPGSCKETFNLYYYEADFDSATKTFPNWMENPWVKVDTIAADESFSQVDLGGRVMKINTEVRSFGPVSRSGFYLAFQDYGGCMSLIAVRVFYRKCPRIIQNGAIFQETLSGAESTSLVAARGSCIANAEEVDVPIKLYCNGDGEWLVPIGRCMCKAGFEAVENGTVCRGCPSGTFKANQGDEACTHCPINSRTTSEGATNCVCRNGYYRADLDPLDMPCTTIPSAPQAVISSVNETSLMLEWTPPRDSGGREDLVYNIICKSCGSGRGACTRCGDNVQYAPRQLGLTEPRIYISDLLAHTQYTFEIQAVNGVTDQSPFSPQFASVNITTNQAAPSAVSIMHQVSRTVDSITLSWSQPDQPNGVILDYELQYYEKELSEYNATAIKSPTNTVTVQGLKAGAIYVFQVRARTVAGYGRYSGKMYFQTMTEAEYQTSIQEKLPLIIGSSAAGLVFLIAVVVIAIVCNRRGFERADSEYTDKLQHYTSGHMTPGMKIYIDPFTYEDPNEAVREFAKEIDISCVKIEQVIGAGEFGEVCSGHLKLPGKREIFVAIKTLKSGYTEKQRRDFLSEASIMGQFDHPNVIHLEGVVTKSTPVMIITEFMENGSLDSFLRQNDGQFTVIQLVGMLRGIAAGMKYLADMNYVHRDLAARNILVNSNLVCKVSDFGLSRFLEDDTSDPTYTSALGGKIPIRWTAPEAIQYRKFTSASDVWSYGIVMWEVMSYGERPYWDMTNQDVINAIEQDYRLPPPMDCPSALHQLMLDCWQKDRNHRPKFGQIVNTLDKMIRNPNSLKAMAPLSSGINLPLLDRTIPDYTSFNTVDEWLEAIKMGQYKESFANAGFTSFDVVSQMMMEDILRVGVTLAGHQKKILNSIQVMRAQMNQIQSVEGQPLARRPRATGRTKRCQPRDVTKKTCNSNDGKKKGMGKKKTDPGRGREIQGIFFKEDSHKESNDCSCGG
# method_summary: phosphorylation enrichment, bacterial display (enrichment ratio); higher = better substrate or ligand; peptides without Tyr show the background;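 note: 11-residue human phosphosite peptides and single-mutation variants displayed on the E. coli surface, counted by deep sequencing, each peptide's frequency after selection divided by its frequency in the unselected input library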;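 note: frequency after pTyr selection over input frequency; kinase dosed for 20-30% of maximal phosphorylation in three min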
endpoint: phosphorylation enrichment
Answers are plain numbers.

Each sequence below has a recorded value; state its phosphorylation enrichment.
1. NPQKSYFIRLY [WAS_Y83]
2. KDGNGYISAAE [CALM1_Y100]
3. MTYVFYRENLR [NLRP14_Y443]
4. HFEDGYPGGSD [CTNND1_Y221_YF]
5. YLGEEYVKAVG [TF_Y674]
6. PSAVAYPKRSQ [MARK3_Y432_V429A]
7. ASIVDYNIIGW [MYH7_Y588_G584S]

1: 0.637; 2: 0.491; 3: 0.741; 4: 0.675; 5: 0.391; 6: 0.563; 7: 0.528
